TGT: Torsin-1A (Homo sapiens) (UniProt O14656)
Sequence (O14656 whole entry, looked up): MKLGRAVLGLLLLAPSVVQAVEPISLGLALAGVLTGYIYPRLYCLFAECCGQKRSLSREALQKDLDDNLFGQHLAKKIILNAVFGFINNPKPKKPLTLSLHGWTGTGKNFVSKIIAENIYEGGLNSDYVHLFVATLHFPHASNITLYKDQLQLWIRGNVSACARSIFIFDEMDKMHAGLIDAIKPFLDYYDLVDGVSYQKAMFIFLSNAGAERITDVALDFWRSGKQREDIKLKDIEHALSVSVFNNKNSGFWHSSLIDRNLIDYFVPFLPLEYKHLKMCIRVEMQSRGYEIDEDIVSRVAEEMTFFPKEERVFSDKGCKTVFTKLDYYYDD
ASSAY: torsin A mutant lysate binding on microarrays – cell lysate, small-molecule microarray, COS7 lysate, 635/667 nm fluorescence, primary screen (AID 1150);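 further: score pools 667 nm emission and signal to noise measuring lysate protein binding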
SETTINGS: COS7 hTOR1A mutant lysate, 635 nm fluorescence, higher = more signal
Recorded measurements of composite z-score, one per entry
ASSAY METRIC: composite z-score

COMPOUND	READOUT NUMBER
CN(C)C(=O)[C@@]1(CCC(=O)OC(C)(C)C)COC(c2ccc(OCCCO)cc2)=N1	1.45
COCCOC(=O)N1C(=O)[C@@]2(c3cc(C#CCCO)ccc31)[C@H](C(=O)NC[C@H](O)c1ccccc1)[C@H]1C(=O)O[C@H](c3ccccc3)[C@H](c3ccccc3)N1[C@@H]2c1ccccc1OCCO	0.597
COCCOC(=O)N1C(=O)[C@@]2(c3cc(C#Cc4ccc(OC)cc4)ccc31)[C@H](C(=O)N1CCc3cc(OC)c(OC)cc3C1)[C@H]1C(=O)O[C@H](c3ccccc3)[C@H](c3ccccc3)N1[C@@H]2c1ccc(O)cc1	0.984
COc1ccc([Si](C)(C)[C@@H]2[C@@H](CC(=O)N(CCO)Cc3ccccc3)O[C@]3(C(=O)N(C)c4c(Br)cc(C)cc43)[C@H]2C)cc1	-0.0496
CCCCC=C[C@@H](NC(=O)CCc1ccccc1)c1ccccc1	0.701
C[C@H]1NC(=O)C([C@@H](C)OCc2ccccc2)NC(=O)[C@@]23C(=O)N[C@@H](Cc4ccccc4)C2[C@H](C)[C@@]2(C)O[C@H]2C3/C=C/CC/C=C/CNC1=O (some centres not stated)	0.212
O=C1c2ccccc2[C@](Cc2ccccc2I)(C(=O)NCC(F)(F)F)[C@H](c2ccc(CO)cc2)N1Cc1ccccc1	0.341
C[N+](C)(C)CCCCCCNC(=O)[C@@H]1C[C@@H]2C(=O)NCC(=O)N2[C@@H]1c1ccc(O)cc1	0.523
Cc1ccc(S[C@]2(C(=O)O)CC(=O)N(C3CCCCC3)[C@@H]2c2ccc(CO)cc2)cc1	-0.249
COc1ccc(C#Cc2ccc3c(c2)[C@]2(C(=O)N3)[C@H](C(=O)O)[C@H]3C(=O)O[C@H](c4ccccc4)[C@H](c4ccccc4)N3[C@@H]2c2ccc(OCCO)cc2)cc1	0.739
C=CCOC(=O)[C@@H]1[C@H]2C(=O)O[C@H](c3ccccc3)[C@H](c3ccccc3)N2[C@H](c2ccc(OCCOC(=O)[C@H]3C[C@H]4C(=O)N[C@@H](Cc5ccccc5)C(=O)N4[C@H]3c3cccc(OCCO)c3)cc2)[C@@]12C(=O)Nc1ccc(I)cc12	0.959
CC(C)N1CC=CC23O[C@@H]4C=CCOC(=O)[C@@H]4[C@H]2C(=O)N(CCCCCCO)[C@@H]3C1=O (some centres not stated)	-0.976
C=CC[C@@]1(C(=O)NCC(O)CO)N=C(c2ccc(OCCCO)cc2)O[C@@H]1c1ccccc1 (some centres not stated)	2.47
CO[C@H]1O[C@H](CO)[C@@H](OC(=O)c2ccc(Br)cc2)[C@@H]2OC(=O)[C@H](Cc3cccc(Br)c3)C/C=C/C[C@@H](Cc3cccc(Br)c3)C(=O)O[C@@H]12	0.442
CC(C)CN1C(=O)[C@@]2(Cc3ccccc31)c1ccccc1C(=O)N(Cc1ccccc1)[C@H]2c1ccc(CO)cc1	-0.359
CC(C)=CCCC(C)=CC(O)C1C=CC2C(=O)N(c3ccccc3)C(=O)C2N1Nc1ccc([N+](=O)[O-])cc1 (configuration not stated)	1.12
NC(=O)[C@H]1[C@@H]2C(=O)O[C@@H](c3ccccc3)[C@@H](c3ccccc3)N2[C@@H](c2ccc(O)cc2)[C@]12C(=O)Nc1ccc(C#CC3(O)CCCCCC3)cc12	1.37
O=C1C2C=CC(C(O)c3cccc4ccccc34)N(Nc3ccccc3)C2C(=O)N1c1ccccc1 (configuration not stated)	0.463
CN1C(=O)C2C=CC(C(O)c3ccc(F)cc3)N(N3CCCCC3)C2C1=O (configuration not stated)	0.531
COc1ccccc1CN1C(=O)c2ccccc2[C@](Cc2ccccc2I)(C(=O)NCCN2CCOCC2)[C@@H]1c1ccc(CO)cc1	0.504
CC(C)NC(=O)[C@@]1(Cc2ccccc2I)c2ccccc2C(=O)N(Cc2ccccc2C(F)(F)F)[C@H]1c1ccc(CO)cc1	0.644
COCCOC(=O)N1C(=O)[C@@]2(c3cc(C#CC4(O)CCCCCC4)ccc31)[C@H](C(=O)NC[C@H](O)c1ccccc1)[C@H]1C(=O)O[C@H](c3ccccc3)[C@H](c3ccccc3)N1[C@@H]2c1ccc(OCCO)cc1	0.124
C=CC[C@@]1(C(=O)NCCN2CCOCC2)N=C(c2ccc(OCCCO)cc2)O[C@@H]1c1ccccc1	0.94
C=CC[C@]1(C(=O)N(C)C)N=C(c2ccc(OCCCO)cc2)O[C@H]1c1ccccc1	1.27
Cc1cc(C)c(C(O)C2C=CC3C(=O)N(c4ccccc4)C(=O)C3N2Nc2ccc([N+](=O)[O-])cc2)c(C)c1 (configuration not stated)	1.2
O=C1C2C=CC(C(O)c3ccccn3)N(Nc3ccccc3)C2C(=O)N1c1ccccc1 (configuration not stated)	-0.382
CC(C)(C)OC(=O)CC[C@]1(C(=O)N2CCCCC2)N=C(c2ccc(OCCCO)cc2)O[C@H]1c1ccccc1CN=[N+]=[N-]	1.17

Where these numbers come from: PubChem BioAssay
